tested-system: UniProtKB P30542
Sequence (P30542 whole entry): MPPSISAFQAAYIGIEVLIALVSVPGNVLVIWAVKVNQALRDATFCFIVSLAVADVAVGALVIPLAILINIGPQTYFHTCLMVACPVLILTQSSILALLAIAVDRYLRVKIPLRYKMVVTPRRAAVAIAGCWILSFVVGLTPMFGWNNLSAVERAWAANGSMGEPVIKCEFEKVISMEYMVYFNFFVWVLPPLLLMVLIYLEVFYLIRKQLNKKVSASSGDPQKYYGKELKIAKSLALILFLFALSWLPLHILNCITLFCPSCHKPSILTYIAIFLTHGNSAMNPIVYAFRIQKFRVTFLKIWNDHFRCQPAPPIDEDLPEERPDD
assay-procedure: Yeast β-Galactosidase reporter gene assay, inhibition of NECA-induced activity, strain CY12660
run-conditions: A1 Yeast IC50 (nM), Table 6, Effect of N6-Substituent
recorded-endpoint: IC50

Fill in: IC50 on UniProtKB P30542, entry CC(=O)NC1CCC(Nc2nc(-c3ccccc3)nc3[nH]c(C)c(C)c23)CC1 (centres unmarked) [Compound 605]
> 10000 nM

# evaluate next
Find IC50 for Cc1[nH]c2nc(-c3ccccc3)nc(NC3CCC(NS(C)(=O)=O)CC3)c2c1C (centres unmarked) [Compound 604] on UniProtKB P30542 and write it down.
> 10000 nM
